assay: Toxicokinetics of PTA and PTB in plasma after intravenous administration of PTA; type: in vivo, Jersey heifers; details: female, Jersey, bovine, plasma, iv, 0.231 μmoles kg^-1, iv PTA 0.231 μmoles kg^-1, heifer no 4848, head prints Experiment 2, plasma; read-out: λz terminal slope (converted)

[
  {
    "Mol": "CC1=C[C@]2(O[C@@H]3O[C@H](CO)[C@@H](O)[C@H](O)[C@H]3O)C[C@@H](C)C(=O)[C@@H]2[C@](C)(O)C12CC2",
    "k el / s⁻¹": 0.000105
  }
]

====

assay: Toxicokinetics of PTA and PTB in plasma after intravenous administration of PTA; type: in vivo, Jersey heifers; settings: female, Jersey, bovine, plasma, iv, 0.527 μmoles kg^-1, iv PTA 0.527 μmoles kg^-1, heifer no 4849, Experiment 1; read-out: MRT mean residence time

[
  {
    "Mol": "CC1=C[C@]2(O[C@@H]3O[C@H](CO)[C@@H](O)[C@H](O)[C@H]3O)C[C@@H](C)C(=O)[C@@H]2[C@](C)(O)C12CC2",
    "MRT": "3.84 h"
  }
]

====

assay: Toxicokinetics of PTA and PTB in plasma after intravenous administration of PTA; assay type: in vivo, Jersey heifers; conditions: female, Jersey, bovine, plasma, iv, 0.527 μmoles kg^-1, iv PTA 0.527 μmoles kg^-1, heifer no 4848, Experiment 1, plasma; read-out: λz terminal slope (converted)
Reported Endpoint: k el (s⁻¹)

[
  {
    "Mol": "CC1=C[C@]2(O[C@@H]3O[C@H](CO)[C@@H](O)[C@H](O)[C@H]3O)C[C@@H](C)C(=O)[C@@H]2[C@](C)(O)C12CC2",
    "Unit Symbol": "s⁻¹",
    "Measured Result": "4.25e-05"
  }
]

====

Assay: Toxicokinetics of PTA and PTB in plasma after intravenous administration of PTA
Format: in vivo, Jersey heifers
Details: female, Jersey, bovine, plasma, iv, 0.527 μmoles kg^-1, iv PTA 0.527 μmoles kg^-1, heifer no 4848, Experiment 1; read-out: MRT mean residence time
Source text: Two heifers (no’s 4848 and 4849) were used in a series of five experiments (Table 1) in a cross-over design including intravenous administration of pure PTA, oral administration of bracken extract and oral administration of dried bracken fern. […] Intravenous administration of PTA. […] Urine was collected quantitatively in urinary bags (Ratiomed GmBH, München, Germany) through a Foley catheter (Rusch Silasil no 16; Teleflex, Milan, Italy) inserted into the bladder. […]

[
  {
    "Mol": "CC1=C[C@]2(O[C@@H]3O[C@H](CO)[C@@H](O)[C@H](O)[C@H]3O)C[C@@H](C)C(=O)[C@@H]2[C@](C)(O)C12CC2",
    "MRT": "2.99 h"
  }
]

====

assay: Toxicokinetics in plasma after oral administration of bracken extract or dried bracken fern; format: in vivo, Jersey heifers; settings: female, Jersey, bovine, plasma, po, 5.02 μmoles kg^-1, PTB in plasma, oral bracken extract, PTA dose 5.02 μmoles kg^-1, heifer no 4848; read-out: Cmax maximum concentration
Reported Endpoint: Cmax (nM)

[
  {
    "Mol": "Cc1cc2c(c(C)c1CCO)C(=O)[C@H](C)C2",
    "Measured Result": 160
  }
]

====

assay: Toxicokinetics of PTA and PTB in plasma after intravenous administration of PTA; type: in vivo, Jersey heifers; conditions: female, Jersey, bovine, plasma, iv, 0.141 μmoles kg^-1, iv PTA 0.141 μmoles kg^-1, heifer no 4849, head prints Experiment 2, plasma; read-out: λz terminal slope (converted)

[
  {
    "Mol": "CC1=C[C@]2(O[C@@H]3O[C@H](CO)[C@@H](O)[C@H](O)[C@H]3O)C[C@@H](C)C(=O)[C@@H]2[C@](C)(O)C12CC2",
    "k el": "6.72e-05 s⁻¹"
  }
]

====

experiment: Toxicokinetics in plasma after oral administration of bracken extract or dried bracken fern; assay type: in vivo, Jersey heifers; conditions: female, Jersey, bovine, plasma, po, 5.02 μmoles kg^-1, PTB in plasma, oral bracken extract, PTA dose 5.02 μmoles kg^-1, heifer no 4849; read-out: Cmax maximum concentration

[
  {
    "Mol": "Cc1cc2c(c(C)c1CCO)C(=O)[C@H](C)C2",
    "Unit Symbol": "nM",
    "Cmax": 174
  }
]

====

assay: Toxicokinetics of PTA and PTB in plasma after intravenous administration of PTA; assay type: in vivo, Jersey heifers; conditions: female, Jersey, bovine, plasma, iv, 0.527 μmoles kg^-1, iv PTA 0.527 μmoles kg^-1, heifer no 4849, Experiment 1; read-out: Cl (body) body clearance (converted)
Reported Endpoint: clearance (mL/min/kg)

[
  {
    "Compound": "CC1=C[C@]2(O[C@@H]3O[C@H](CO)[C@@H](O)[C@H](O)[C@H]3O)C[C@@H](C)C(=O)[C@@H]2[C@](C)(O)C12CC2 [PTA]",
    "Reported Endpoint": "clearance",
    "Unit Symbol": "mL/min/kg",
    "Measured Result": 6.48
  }
]

====

assay: Toxicokinetics of PTA and PTB in plasma after intravenous administration of PTA; assay type: in vivo, Jersey heifers; details: female, Jersey, bovine, plasma, iv, 0.141 μmoles kg^-1, iv PTA 0.141 μmoles kg^-1, heifer no 4849, head prints Experiment 2; read-out: Cl (body) body clearance (converted)

[
  {
    "Mol": "CC1=C[C@]2(O[C@@H]3O[C@H](CO)[C@@H](O)[C@H](O)[C@H]3O)C[C@@H](C)C(=O)[C@@H]2[C@](C)(O)C12CC2",
    "clearance": "5.57 mL/min/kg"
  }
]

====

experiment: Toxicokinetics of PTA and PTB in plasma after intravenous administration of PTA; assay type: in vivo, Jersey heifers; conditions: female, Jersey, cattle, plasma, iv, 0.21 mg/kg, iv PTA 0.21 mg kg^-1 b.w., average of two heifers; read-out: average of the mean residence time (MRT)
Reported Endpoint: MRT

[
  {
    "Molecule": "CC1=C[C@]2(O[C@@H]3O[C@H](CO)[C@@H](O)[C@H](O)[C@H]3O)C[C@@H](C)C(=O)[C@@H]2[C@](C)(O)C12CC2 [PTA]",
    "Measured Result": "3.4 h"
  }
]

====

test: Toxicokinetics of PTA and PTB in plasma after intravenous administration of PTA; type: in vivo, Jersey heifers; conditions: female, Jersey, cattle, plasma, 0.21 mg kg^-1 b.w.; iv PTA, first sampling point; read-out: time of peak plasma concentration of the metabolite after administration of PTA (converted)
Reported Endpoint: Tmax

[
  {
    "Mol": "Cc1cc2c(c(C)c1CCO)C(=O)[C@H](C)C2",
    "Reported Endpoint": "Tmax",
    "Measured Result": "10 min"
  }
]

====

test: Toxicokinetics of PTA and PTB in plasma after intravenous administration of PTA; format: in vivo, Jersey heifers; conditions: female, Jersey, bovine, plasma; iv purified PTA; read-out: terminal half-life

[
  {
    "Compound": "CC1=C[C@]2(O[C@@H]3O[C@H](CO)[C@@H](O)[C@H](O)[C@H]3O)C[C@@H](C)C(=O)[C@@H]2[C@](C)(O)C12CC2 [PTA]",
    "half-life": "≤ 6 h"
  }
]

====

Experiment: Toxicokinetics in plasma after oral administration of bracken extract or dried bracken fern
Format: in vivo, Jersey heifers
Details: female, Jersey, bovine, plasma, po, 4.02 μmoles kg^-1, PTB in plasma, oral dried bracken, PTA dose 4.02 μmoles kg^-1, heifer no 4849; read-out: Tmax time at maximum concentration
Experimental: Two heifers (no’s 4848 and 4849) were used in a series of five experiments (Table 1) in a cross-over design including intravenous administration of pure PTA, oral administration of bracken extract and oral administration of dried bracken fern. At least 2 weeks elapsed between each experiment. Oral exposure, bracken extract. […] Concentrations of PTA in plasma of individual animals were evaluated by non-compartmental analysis. Toxicokinetic variables were calculated using standard kinetic equations. […]

[
  {
    "Mol": "Cc1cc2c(c(C)c1CCO)C(=O)[C@H](C)C2",
    "Tmax [h]": 2
  }
]

====

test: Toxicokinetics in plasma after oral administration of bracken extract or dried bracken fern; format: in vivo, Jersey heifers; details: female, Jersey, bovine, plasma, po, 5.02 μmoles kg^-1, PTB in plasma, oral bracken extract, PTA dose 5.02 μmoles kg^-1, heifer no 4849; read-out: Tmax time at maximum concentration
Reported Endpoint: Tmax (min)

[
  {
    "Mol": "Cc1cc2c(c(C)c1CCO)C(=O)[C@H](C)C2",
    "Measured Result": 45
  }
]

====

test: Toxicokinetics in plasma after oral administration of bracken extract or dried bracken fern; assay type: in vivo, Jersey heifers; conditions: female, Jersey, bovine, plasma, po, 4.02 μmoles kg^-1, PTB in plasma, oral dried bracken, PTA dose 4.02 μmoles kg^-1, heifer no 4849; read-out: Cmax maximum concentration
Reported Endpoint: Cmax

[
  {
    "Mol": "Cc1cc2c(c(C)c1CCO)C(=O)[C@H](C)C2",
    "Measured Result": "74 nM"
  }
]
